These data points were gathered from paper PMC7076710.

Target: GATA4–NKX2-5 transcriptional synergy (Mus musculus, UniProt P42582+Q08369)
Construct: expressed in transfected cells; host or cells: COS-1
Sequence (Q08369 whole entry, one chain of several): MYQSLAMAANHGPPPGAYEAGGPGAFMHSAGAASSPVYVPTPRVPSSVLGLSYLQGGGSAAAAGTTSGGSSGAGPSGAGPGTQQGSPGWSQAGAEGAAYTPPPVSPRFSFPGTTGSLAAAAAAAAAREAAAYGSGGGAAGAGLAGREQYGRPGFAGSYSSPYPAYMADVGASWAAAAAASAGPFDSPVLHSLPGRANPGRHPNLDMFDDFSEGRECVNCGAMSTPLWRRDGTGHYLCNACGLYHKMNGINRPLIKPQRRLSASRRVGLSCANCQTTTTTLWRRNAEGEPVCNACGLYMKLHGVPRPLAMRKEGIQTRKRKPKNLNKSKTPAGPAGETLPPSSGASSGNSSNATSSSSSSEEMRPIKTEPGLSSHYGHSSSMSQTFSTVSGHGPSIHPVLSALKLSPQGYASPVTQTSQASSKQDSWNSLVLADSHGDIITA
Assay: GATA4–NKX2-5 transcriptional synergy luciferase reporter assay (3xNKE reporter, COS-1 cells)
Type: cell-based
Conditions: 3 µM compound; GATA4–NKX2-5 transcriptional synergy reporter, COS-1 cells
Endpoint label: activity at 3 µM (%)

Molecule | Readout units | activity at 3 µM
CCN(CC)c1ccc(NCc2c(-c3c(Cl)cccc3Cl)noc2C)cc1 | % | 102
CSc1nsc(SC)c1C(=O)Nc1ccc2oc(-c3ccccc3)cc(=O)c2c1 | % | 96.2
CCN(CC)c1ccc(NCc2c[nH]nc2-c2cccs2)cc1 | % | 99
CCN(CC)c1ccc(NC(=O)c2ccoc2CCc2cccs2)cc1 [Compound 47i] | % | 89
CCc1noc(C)c1C(=O)Nc1ccc(N(CC)CC)cc1 [Compound 39b] | % | 97.5

###

Biological target: NKX2-5 transcriptional activity (Mus musculus, UniProt P42582)
Construct: expressed in transfected cells; host or cells: COS-1
Sequence (P42582 whole entry): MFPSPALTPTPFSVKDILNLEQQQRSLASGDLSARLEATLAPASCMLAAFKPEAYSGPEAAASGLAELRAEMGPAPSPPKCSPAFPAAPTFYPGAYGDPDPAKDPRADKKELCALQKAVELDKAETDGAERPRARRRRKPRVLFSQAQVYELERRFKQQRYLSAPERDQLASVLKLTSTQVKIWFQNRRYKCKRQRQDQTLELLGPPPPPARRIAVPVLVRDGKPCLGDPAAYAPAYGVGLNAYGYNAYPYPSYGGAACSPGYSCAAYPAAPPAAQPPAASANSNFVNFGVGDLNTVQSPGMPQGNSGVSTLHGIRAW
Experiment: NKX2-5 luciferase reporter assay (3xNKE reporter, COS-1 cells)
Assay type: cell-based
Details: COS-1; compound 10 µM; luciferase reporter activity; spread in separate STDEV column; read-out: NKX.10µM
Endpoint label: activity at 10 µM (%)

Compound | Recorded result
Cc1onc(-c2ccccc2)c1C(=O)Nc1ccc(C(=O)OCCCCC#N)cc1 [Compound 10c] | 147
CN(C)c1ccc(CNc2cc(-c3ccccc3)nn2-c2ccccc2)cc1 | 79
CCN(CC)c1ccc(NC(=O)c2cc(C)oc2-c2cc(C)on2)cc1 [Compound 47h] | 106

A: CCN(CC)c1ccc(NC(=O)c2cn(C)cc2-c2cc(C)on2)cc1 [Compound 47m]
B: COc1ccc(-c2cc(NCc3ccc(N(C)C)cc3)n[nH]2)cc1
Which has the higher activity at 10 µM, A or B ? Select an item and report its label. A

###

Molecular target: GATA4–NKX2-5 transcriptional synergy (Mus musculus, UniProt P42582+Q08369)
Construct: expressed in transfected cells; host or cells: COS-1
Experiment: GATA4–NKX2-5 transcriptional synergy luciferase reporter assay (3xNKE reporter, COS-1 cells)
Format: cell-based
Conditions: COS-1; GATA4-NKX2-5 transcriptional synergy luciferase reporter assay, compound at 3 µM
Endpoint label: activity at 3 µM (%)

A selection of reference data follows.
Compound | Assay system | activity at 3 µM [%]
CCN(CC)c1ccc(NC(=O)c2c(-c3cccc(Br)c3)noc2C)c(C)c1 | GATA4–NKX2-5 transcriptional synergy (Mus musculus, UniProt P42582+Q08369) | 85.4
Cc1cc(-c2noc(C)c2C(=O)Nc2ccc(Cl)cc2)no1 | GATA4–NKX2-5 transcriptional synergy (Mus musculus, UniProt P42582+Q08369) | 82.9
CN(C)c1c(F)cc(NC(=O)c2cc(-c3ccco3)on2)cc1F | GATA4–NKX2-5 transcriptional synergy (Mus musculus, UniProt P42582+Q08369) | 94.3
CC(C)c1ccc(NC(=O)c2n[nH]c3c2COc2ccccc2-3)cc1 | GATA4–NKX2-5 transcriptional synergy (Mus musculus, UniProt P42582+Q08369) | 91.2
CCN(CC)c1ccc(NC(=O)c2cc(-c3ccco3)[nH]n2)cc1 | GATA4–NKX2-5 transcriptional synergy (Mus musculus, UniProt P42582+Q08369) | 91.7

1: CC(C)c1ccc(NC(=O)c2noc3c2CCc2sccc2-3)cc1
2: Cc1ccc(NC(=O)c2c(-c3cc(C)on3)noc2C)cc1
Which has the higher activity at 3 µM, 1 or 2 ? Select an item and report its label. 1
(1: 132%, 2: 88.6%)

###

Target: GATA4–NKX2-5 transcriptional synergy (Mus musculus, UniProt P42582+Q08369)
Construct: expressed in transfected cells; host or cells: COS-1
Test: GATA4–NKX2-5 transcriptional synergy luciferase reporter assay (3xNKE reporter, COS-1 cells)
Assay type: cell-based
Conditions: COS-1; compound 10 µM; luciferase reporter activity relative to control
Endpoint label: activity at 10 µM (%)

Compound | activity at 10 µM / %
CCN(CC)c1ccc(C(=O)Cn2nnnc2-c2ccccc2)cc1 | 87.9
COC(=O)c1c(-c2ccccc2)nnn1CC1CCCO1 (centres unmarked) | 100
CCC(=O)c1ccc(OCc2c(C)noc2-c2ccccc2)cc1 | 95.3
CC(=O)c1ccc(OCc2cc(-c3ccc(CC(C)C)cc3)on2)cc1 | 104
O=C(Nc1ccc2oc(-c3ccccc3)cc(=O)c2c1)c1cnsc1 | 117

###

Target: GATA4–NKX2-5 transcriptional synergy (Mus musculus, UniProt P42582+Q08369)
Construct: expressed in transfected cells; host or cells: COS-1
Test: GATA4–NKX2-5 transcriptional synergy luciferase reporter assay (3xNKE reporter, COS-1 cells)
Format: cell-based
Details: COS-1; compound 3 µM; luciferase reporter activity relative to control
Endpoint label: activity at 3 µM (%)

a: CCN(CC)c1ccc(N(CCC2OCCO2)C(=O)c2c(-c3cccc([N+](=O)[O-])c3)noc2C)cc1
b: CCN(c1ccc(NC(=O)c2cnsc2)cc1)C(C)C
Which has the higher activity at 3 µM, a or b ? Select an item and report its label. a
(a: 82.9%, b: 28.8%)

###

System: COS-1 cells
Assay: LDH assay (necrosis)
Assay type: cell-based
Conditions: 30 µM
Documented LDH.30µM across a set of molecules
Respond numerically, and do not add a unit to the figure.

A selection of reference data follows.
Molecule | LDH.30µM
CCN(CC)c1ccc(NC(=O)c2cnc3ncccn23)cc1 [Compound 47aa] | -0.51
C=CCN(Cc1ccc(N(CC)CC)cc1)c1c(-c2ccccc2)noc1C [Compound 30b] | 3.61
CC(=O)N(Cc1ccc(N(C)C)cc1)c1c(-c2ccccc2)noc1C | -0.49
CCN(CC)c1ccc(NC(=O)c2ccnn2-c2ccccc2)cc1 | -1.27
CCN(CC)c1ccc(NC(=O)c2c(C)noc2-c2cc(C)on2)cc1 | -1.83
CCN(CC)c1ccc(NC(=O)c2csc(C)c2-c2ccccc2)cc1 [Compound 47t] | 2.38
CCN(CC)c1ccc(NC(=O)c2cnc(SC)n2-c2ccc(F)cc2)cc1 [Compound 47z] | -0.25
CCC(OC)c1ccc(OCc2c(-c3ccccc3)noc2C)cc1 (racemic) [Compound 34e] | 0.55

As a next step, examine the molecule that follows.
`CN(C)c1ccc(NCc2c[nH]nc2-c2ccc(F)cc2)cc1` yielded LDH.30µM of -2.54

###

System: COS-1 cells
Experiment: LDH assay (necrosis)
Format: cell-based
Details: 3 µM
Endpoint label: LDH.3µM
Respond numerically, and do not add a unit to the figure.

A selection of reference data follows.
Compound | LDH.3µM
CCN(CC)c1ccc(NC(=O)c2c(-c3ccncc3)noc2C)cc1 [Compound 39c] | 0.49
CCN(CC)c1ccc(NCc2c[nH]nc2-c2cc(F)cc(F)c2)cc1 | 1.38
CCN(CC)c1ccc(CN(C(=O)C(F)(F)F)c2c(-c3ccccc3)noc2C)cc1 [Compound 30c] | 0

As a next step, examine the compound that follows.
CCN(CC)c1ccc(NC(=O)c2cnoc2-c2ccccc2)cc1 [Compound 47d] yielded LDH.3µM of 0.88

###

System: COS-1 cells
Assay: LDH assay (necrosis)
Format: cell-based
Settings: 3 µM
Endpoint label: LDH.3µM
Respond numerically, and do not add a unit to the figure.

Compound | Recorded result
CCN(CC)c1ccc(NC(=O)c2ccnn2-c2ccccc2)cc1 [SI88] | -0.13

As a next step, examine the compound that follows.
C=CCN(Cc1ccc(N(CC)CC)cc1)c1c(-c2ccccc2)noc1C [Compound 30b] yielded LDH.3µM of -0.27

###

Target: GATA4–NKX2-5 transcriptional synergy (Mus musculus, UniProt P42582+Q08369)
Construct: expressed in transfected cells; host or cells: COS-1
Assay: GATA4–NKX2-5 transcriptional synergy luciferase reporter assay (3xNKE reporter, COS-1 cells)
Format: cell-based
Conditions: COS-1; GATA4-NKX2-5 transcriptional synergy luciferase reporter assay, compound at 10 µM
Endpoint label: activity at 10 µM (%)

P: CN(C)c1c(F)cc(NC(=O)c2cc(-c3ccco3)on2)cc1F
Q: O=C(Nc1cc(-c2cccs2)n[nH]1)c1ccccc1
Compare activity at 10 µM: is it lower for P or for Q ? Select an item and report its label. Q

###

Biological target: GATA4–NKX2-5 transcriptional synergy (Mus musculus, UniProt P42582+Q08369)
Construct: expressed in transfected cells; host or cells: COS-1
Test: GATA4–NKX2-5 transcriptional synergy luciferase reporter assay (3xNKE reporter, COS-1 cells)
Type: cell-based
Conditions: COS-1; compound at 10 µM; luciferase reporter activity, % of control
Endpoint label: activity at 10 µM (%)

Molecular string | activity at 10 µM (%)
COc1ccc(-c2cc(N=Cc3ccc(N(C)C)cc3)n[nH]2)cc1 | 89.2
Cc1onc(-c2cccc([N+](=O)[O-])c2)c1C(=O)Nc1ccc(N(C)C)cc1 | 101
Cc1onc(-c2ccccc2)c1NC(=O)c1ccc(CN(C)C)cc1 | 112
Cc1onc(-c2ccccc2)c1C(=O)Nc1ccc2c(c1)nc(C)n2C(C)C | 96
Cc1cc(NC(=O)c2c(-c3ccccc3)noc2C)ncc1[N+](=O)[O-] | 78.3
COc1ccc(NC(=O)n2nc(N)cc2-c2ccc(OC)cc2)cc1 | 108

a: COc1ccc(-c2cc(N)nn2C(=O)c2ccc(C(C)(C)C)cc2)cc1
b: CN(C)c1ccc(C=Nc2cc(-c3ccccc3)nn2-c2ccccc2)cc1
Which has the higher activity at 10 µM, a or b ? Select an item and report its label. b
